Where do the numbers come from? From patent US20250152504A1.

experimental.details: Triple active compound (RAL, MVC, ETR) intrauterine system in vivo study, tissue and secretion concentrations
setup.conditions: female, human, in vivo, 28 days after insertion; read-out: tissue concentration, Rectum
property: concentration at 28 days (ng/mL)
Entry rule: numbers only, all in ng/mL.

Req: Identify concentration at 28 days associated with the molecule `Cc1nnc(C(=O)NC(C)(C)c2nc(C(=O)NCc3ccc(F)cc3)c(O)c(=O)n2C)o1`
Resp: 39.9

---

experimental.details: physchem
Type: physicochemical
setup.conditions: 37 °C, aqueous with cosolvent or surfactant or cyclodextrin, thermodynamic from solid
property: solubility (µg/mL)
Hi! Could you send only the number? It should be in µg/mL, unit omitted.

Req: Using the record for Cc1cc(C)c(Nc2ccnc(Nc3ccc(C#N)cc3)n2)c(C)c1 [DPV, dapivirine] , state its measured solubility.
Resp: 164
